- tested_system: protein kinase
- measurement_description: HTS ATP-utilizing enzyme assay, off-chip mobility-shift format (Caliper HTS 250)
- Format: biochemical, human
- settings: kinase(s) for which the compound exhibits protein kinase inhibitory activity; test compound 10 μM; active = greater than three-sigma from the mean activity of inactive compounds
experimental_endpoint: Kinase

Prompt: Which value of Kinase has been reported for `CCOC(=O)CSc1nnc(-c2cc3ccccc3cc2O)n1C` in the records?
Response: FYN

Prompt: Which value of Kinase has been reported for CCn1c(SC(C)C(=O)Nc2ccccc2C)nnc1-c1ccc([N+](=O)[O-])cc1 (centres unmarked) in the records?
Response: DAPK1

Prompt: Which value of Kinase has been reported for `CCn1c(CNc2ccc(C)c(Cl)c2)nnc1SCC(=O)O` in the records?
Response: PDGFRR-α

Prompt: Which value of Kinase has been reported for `CCC(=O)Nc1cc(NC(=O)CSc2nnc(-c3ccc(O)cc3)n2CC)ccc1C` in the records?
Response: SGK1

Prompt: Which value of Kinase has been reported for `COc1ccc(OCc2nnc(SCC(=O)c3ccccc3)n2C)cc1` in the records?
Response: PAK2

Prompt: Which value of Kinase has been reported for `COCCn1c(SCC(=O)NCc2ccc3c(c2)OCO3)nnc1-c1cc2ccccc2cc1O` in the records?
Response: AURORA-A

Prompt: Which value of Kinase has been reported for `CCn1c(SCC(=O)c2ccccc2)nnc1C1CCCCC1` in the records?
Response: SRC

Prompt: Which value of Kinase has been reported for `COCCn1c(SCC(=O)Nc2cccc(O)c2)nnc1-c1ccncc1` in the records?
Response: AKT1

Prompt: Which value of Kinase has been reported for O=C(CSc1nnc(-c2ccc([N+](=O)[O-])cc2)n1CC1CCCO1)N1CCOCC1 (centres unmarked) in the records?
Response: PDGFRR-α

Prompt: Which value of Kinase has been reported for `COc1ccc(-c2nnc(SCC(=O)NCC3CCCCC3)n2-c2ccccc2)cc1` in the records?
Response: AKT3

More entries:
Prompt: Which value of Kinase has been reported for CCOc1ccc(NCc2nnc(SC(C)C(=O)N(c3ccccc3)c3ccccc3)n2-c2ccc(OC)cc2)cc1 (centres unmarked) in the records?
Response: FYN

Prompt: Which value of Kinase has been reported for `Sc1nnc(COc2ccc3ccccc3c2)n1-c1ccccc1` in the records?
Response: AURORA-A

Prompt: Which value of Kinase has been reported for `Cc1ccc(NC(=O)CSc2nnc(-c3ccccc3O)n2-c2ccc(C)cc2)cc1` in the records?
Response: AURORA-A

----------
- System: protein kinase
- measurement_description: HTS ATP-utilizing enzyme assay, off-chip mobility-shift format (Caliper HTS 250)
- Format: biochemical, human
- settings: test compound 10 μM; active = activity greater than three-sigma from the mean of the predominately inactive population for that enzyme
experimental_endpoint: protein kinase against which the compound exhibits inhibitory activity (Table 3)

Prompt: Which value of protein kinase against which the compound exhibits inhibitory activity (Table 3) has been reported for `FC(F)Oc1ccccc1CSc1nnc(-c2cc(-c3ccccc3)nc3ccccc23)n1Cc1ccco1` in the records?
Response: c-TAK1

Prompt: Which value of protein kinase against which the compound exhibits inhibitory activity (Table 3) has been reported for `CN(C)CCCSc1nnc(-c2ccc([N+](=O)[O-])cc2)[nH]1` in the records?
Response: c-TAK1

Prompt: Which value of protein kinase against which the compound exhibits inhibitory activity (Table 3) has been reported for `Clc1ccc(Cn2c(SCc3ccccc3)nnc2C2CCCCC2)cc1Cl` in the records?
Response: c-TAK1
